- Tested on: COLO 205 colon
- assay_text: NCI-60 one-dose screen, 48 h (100 = growth as untreated, 0 = no growth, -100 = all killed)
- experimental_context: 10 µM unless noted
This is part of a sample that, as a whole, favours compounds with a hit. Of some 83,000 tested, about 20% had one in any assay.

| compound_structure_string | measurement_target | growth / % |
| --- | --- | --- |
| O=C(/C=C/c1ccccc1)c1cccc(O)c1 | COLO 205 colon | 110 |
| C#C[C@]1(O)CC[C@H]2[C@@H]3CC=C4c5sc(Nc6cc(C)cc(C)c6)nc5CC[C@]4(C)[C@H]3CC[C@@]21C | COLO 205 colon | -13.3 |
| Cn1cc(-c2nn3cc(-c4ccncc4)nc3s2)c2cc(F)ccc21 | COLO 205 colon | 55 |
| O=C(/C=C/Nc1ccc(S(=O)(=O)Nc2ncccn2)cc1)c1ccc(N=Cc2c(O)[nH]c3ccccc23)cc1 | COLO 205 colon | 117 |
| COc1cc2cc(Oc3ccc(NC(=O)Nc4ccc(F)c(C(F)(F)F)c4)cc3)c(C)nc2cc1OCCN(C)C | COLO 205 colon | 117 |
| CC(=O)N(O)CCCCCNC(=O)CCC(=O)N(O)CCCCCNC(=O)CCC(=O)N(O)CCCCCN(CCCCCCCCCC[P+](c1ccccc1)(c1ccccc1)c1ccccc1)CCCCCCCCCC[P+](c1ccccc1)(c1ccccc1)c1ccccc1 | COLO 205 colon | -43.4 |
| NCCNC(=O)c1cccc(COc2ccccc2NC(=O)c2cc(Br)c(Br)[nH]2)c1 | COLO 205 colon | 110 |
| Cc1ccc2c(n1)C(=O)C(Cl)=C(Nc1ccc(C#N)cc1)C2=O | COLO 205 colon | 79.6 |

FYI, the data here is from PubChem BioAssay (NCI).
